- STUDY TARGET: Aβ 1-42 (Homo sapiens, UniProt P05067)
- Construct: The reaction solutions contained Aβ 1-42 at concentrations
- Sequence (P05067 672-713 limits assumed): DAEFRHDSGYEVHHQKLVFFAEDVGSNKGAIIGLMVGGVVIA
- ASSAY PROCEDURE: Fluorometric H2O2 assay (inhibition of Abeta H2O2 production)
- Assay type: biochemical
ASSAY METRIC: pIC50
// pIC50: -log10(molar conc.)

Lookup: Look up pIC50 with Aβ 1-42 (Homo sapiens, UniProt P05067) for this compound: Oc1cccc2cccnc12
Found: 6.15

====

- Tested on: M17 human neuroblastoma cells
- ASSAY PROCEDURE: Cytotoxicity, M17 human neuroblastoma cells
- Type: cell-based
- APPLIED CONDITIONS: 1 μM test compound
- Method: Assay 3. MTS Assay for Cell Viability Cell viability is determined using the MTS assay. Culture medium is replaced with fresh neurobasal medium plus B27 supplements minus antioxidants. 1/10th volume MTS solution (Cell Titre 96 Aqueous One, Promega Corporation) and incubated at 37° C., 2 hrs. 200 microliter aliquots are measured with a spectrophotometer at 560 nm.
# Lookup of reported Cytotox (% viable) M17 cells at 1 μM keyed by entry
Hi! Could you send only the number? It should be in %, unit omitted.

O=C(Nc1nc2ccc(F)cc2s1)c1cnc2c(O)cccn2c1=O 60.1
CC(C)Cn1cnc2c(O)c(I)ccc2c1=O 95.7
CN(C)Cc1ccc2c(Cl)cc(I)c(O)c2n1 97.9
CC(C)Cn1c(CN(C)C)nc2c(O)c(Cl)cc(Cl)c2c1=O.Cl 104.4
Br.CNCc1nc2c(O)c(Cl)cc(Cl)c2c(=O)n1C 101.4

Lookup: Item under review: CCCCc1cnc2c(O)c(I)ccn2c1=O . Reported Cytotox (% viable) M17 cells at 1 μM?
Found: 101.7

Lookup: Item under review: O=c1c2ccc(I)c(O)c2ncn1-c1ccc(F)cc1 . Reported Cytotox (% viable) M17 cells at 1 μM?
Found: 93.9

Lookup: Item under review: Cn1nccc1-n1cnc2c(O)c(Cl)cc(Cl)c2c1=O . Reported Cytotox (% viable) M17 cells at 1 μM?
Found: 106.5

Lookup: Item under review: O=c1c2c(Cl)cc(I)c(O)c2ncn1CC1CC1 . Reported Cytotox (% viable) M17 cells at 1 μM?
Found: 92.4

Lookup: Item under review: O=C1NC(=O)c2cc(-n3cnc4c(O)c(Cl)cc(Cl)c4c3=O)ccc21 . Reported Cytotox (% viable) M17 cells at 1 μM?
Found: 101.2

Lookup: Item under review: CCCc1cnc2c(O)c(I)ccn2c1=O . Reported Cytotox (% viable) M17 cells at 1 μM?
Found: 80.8

====

- System: M17 human neuroblastoma cells
- ASSAY PROCEDURE: Cytotoxicity, M17 human neuroblastoma cells
- Type: cell-based
- APPLIED CONDITIONS: 10 μM test compound
# Lookup of reported Cytotox (% viable) M17 cells at 10 μM keyed by entry
Hi! Could you send only the number? It should be in %, unit omitted.

As a guide, the following entries are already answered.
COMPOUND	STUDY TARGET	ASSAY METRIC	REPORTED
CN(C)Cc1ccc2c(Cl)cc(Cl)c(O)c2n1.Cl	M17 human neuroblastoma cells	Cytotox (% viable) M17 cells at 10 μM	54.3
O=c1c2c(Cl)cc(Cl)c(O)c2ncn1Cc1ccncc1	M17 human neuroblastoma cells	Cytotox (% viable) M17 cells at 10 μM	90.4
CCn1cnc2c(O)c(I)cc(Cl)c2c1=O	M17 human neuroblastoma cells	Cytotox (% viable) M17 cells at 10 μM	68.2
O=c1c2c(Cl)cc(I)c(O)c2ncn1Cc1ccccn1	M17 human neuroblastoma cells	Cytotox (% viable) M17 cells at 10 μM	137
O=c1c2c(Cl)cc(I)c(O)c2ncn1-c1cccnc1	M17 human neuroblastoma cells	Cytotox (% viable) M17 cells at 10 μM	111

Lookup: Item under review: CCCCc1cnc2c(O)cccn2c1=O . Reported Cytotox (% viable) M17 cells at 10 μM?
Found: 37

Lookup: Item under review: CCCCNC(=O)c1cnc2c(O)cccn2c1=O . Reported Cytotox (% viable) M17 cells at 10 μM?
Found: 41.1

Lookup: Item under review: CCC(C)Cn1cnc2c(O)cccc2c1=O (centres unmarked) . Reported Cytotox (% viable) M17 cells at 10 μM?
Found: 47.2

Lookup: Item under review: O=c1c2c(Cl)cc(Cl)c(O)c2ncn1Cc1ccn2ccnc2c1 . Reported Cytotox (% viable) M17 cells at 10 μM?
Found: 105.1
